Assay: protein stability index of a GFP-peptide fusion (GPS, HEK-293T) (PSI 1-6); higher = more stable;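 also: 24-mer peptide tiles fused after GFP, lentivirally expressed, FACS-sorted into six equal bins by GFP/DsRed ratio, decoded by Illumina sequencing, PSI is the read-weighted mean bin number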
Settings: treatment: MLN4924 1 uM, 8 h; c terminus: a fixed tail appended
PARAMETER: protein stability index
Reply with just the number.

protein stability index reading for CSEDWVGYQRKCYFISTVKRSWTS [CD69] : 2.65

Summary for this sequence, RTNDGKITYPPGVKEISDKISKEE [PDS5B] : protein stability index is 5.2

The sequence listed as EKEKEKHKVKAEEEKKAKVAPPAK [BRD3] shows protein stability index equal to 5.56

Entry RLMDVCATSRTDREIKVTLVFEHV [CDK4] ; protein stability index = 2.5

Given item ARSVGLKWRKVGRSLQRGCRALRD [TRADD] , the value recorded as its protein stability index is 2.55

Kindly note the recorded protein stability index for QYYEACRKAAKSLIKLGLERFHGV [ACSBG2] , which is 3.45

# sequence DVTDEHGEREPFAETDEHTGANTK [FAM9B] ; its protein stability index = 5.5

Kindly note the recorded protein stability index for KPLYPDDYVHISSKPCDLHCTTVD [ADAMTSL2] , which is 4.21

Looking up SGTPKRYSLELGKAIKQKLWEALC [C22orf31] , I see its protein stability index listed as 2.9

Looking up SADVVSPSGHSDAQTLAMMLQEQL [PPFIA4] , I found its protein stability index recorded as 4.97

Value of measured protein stability index for the entry QKKIGAYDQQIWEKSIEQTQIKGL [PHTF1] : 3.73

Measured protein stability index of LMRHGMEKIWRPNRVFSLQDLCCR [RAB40C] : 2.71

The reported protein stability index of the sequence HRRTVKMRKGNTMQQFLQKALEIL [FAM50A] was 2.77

Documented protein stability index of EDKCPGNYTNPLKVQTVIILGKVI [TMEM192] : 2.29

Measured protein stability index of TGGADAYYEMGIHCWDVAGAGIIV [IMPA1] : 2.97

Value of protein stability index reported for the sequence RKWHKASNYIFVAIFWIVFLLLIV [P2RY14] is 3.43

In plain terms, PSAAQTLRSFCAWQRGLNTPEDSD [ADAMTS4] has a documented protein stability index of 4.53

Recorded result, QAQPLRTTSTLASSLPGHAAKTLP [EHMT1] , protein stability index: 4.4

Reported protein stability index for WSIFYFFKSFQYPLPWSECPVVRN [SLC6A17] was 2.59

Measured protein stability index, YQVHDYLRSKLCSLYENDCIFDKF [PPP2R2B] : 2.27

The reported protein stability index of the sequence NKVELQAKVESMDQEIKFFRCLFE [KRT71] was 2.48

The sequence identified as APSEGSAEAAPELDLFAMKPPETS [SNAP91] registered its protein stability index at 5.47

Measured protein stability index, TYRKVMNWKETLVFPPEVPISEKA [STK38L] : 3.24

// field: protein stability index; key: RSPTLEPPRGRSEAPDSLNGPLGP [SMG5] ; value = 4.77

Form field protein stability index, entry LQAKQDGKKDVSHSSPVDLKIPQV [LCOR] : 4.92

Just so you know, measured protein stability index for PEGGLEEPDALDDSLTSLQWLQEF [FOXJ1] came out at 4.53

Entry SGKSEISELRRTMQALEIELQSQL [KRT17] ; protein stability index = 3.68

###

Consider the following sequences; for each one, report its protein stability index.
Assay: protein stability index of a GFP-peptide fusion (GPS, HEK-293T) (PSI 1-6); higher = more stable
Settings: treatment: DMSO; c terminus: a fixed tail appended

Form: sequence = ANYLEKVRQLERENAELESRIQEW [KRT36] ; protein stability index = 4.27

Entry LIKLGLERFHGVGILGFNSAEWFI [ACSBG2] , protein stability index reported as 1.91

Reported protein stability index for VSTNTAMIQTSKTEITELRRTLQG [KRT13] was 4.08

protein stability index reported for this sequence HQRTHTGEKPFTCHECGKKFSQNS [ZNF75A] : 3.14

Noted for TVILIESTNEITYGLPIMVTLMVA [CLCN6] : its protein stability index reads 3.47

Measured protein stability index of HRRRNQLIKKKKEELEAKRLQCPF [FAM107A] : 3.95

Documented protein stability index of FVESSGGGSSAVGQFVSLDGAGKT [BRF1] : 2.94

###

Record form. Attribute: protein stability index. Fill in for each entry.
Assay: protein stability index of a GFP-peptide fusion (GPS, HEK-293T) (PSI 1-6); higher = more stable
Settings: treatment: MLN4924 1 uM, 8 h; c terminus: a fixed tail appended
Give the figure by itself; no unit, no explanation.

The measured protein stability index associated with EDVEAVQKLQDVLHEALQDYEAGQ [ESRRG] reads 4.95

Reported protein stability index for FGSLPSPKELSSFSFSMKGHEKTA [DLC1] was 3.74

// sample DEAKAPHWTSAPLTEASAHSHPPE [MAP2] , its protein stability index was 5.37

Item: PELTITSLFSPVTEDSPLGTVVAL [PCDHGA10] | protein stability index: 2.72

sequence FIMLSCVQLQRIPLSAVYRICLGK [TPRG1] , protein stability index observed: 2.01

Form field protein stability index, entry QRTHTGEKPYKCPECGEIFAHSSN [ZNF263] : 4.07

Entry PFTKKRVGVDRAFPLKPMVHRKSC [ZC2HC1C] ; protein stability index = 3.65

In plain terms, RYCMQLSQIQGLIGSVEEQLAQLR [KRT16] has a documented protein stability index of 2.49

Sample RRSNSPDKFKRPTPPPSPNTQTPV [CCDC6] ; protein stability index observed: 5.25

Query CAYRTHLVAGIGFYQHLLLYIQSH [SMG5] yields protein stability index of 3.34

// field: protein stability index; key: DPTGPAGLGRPTPGLSQGPGKETL [EHMT1] ; value = 5.09

Reported protein stability index for FLIEGPLINTIRVVCASYEDYGHW [PLEKHN1] was 2.58

// recorded protein stability index for LAPDFDRWLDESDAEMELRAKEEE [HACD3] : 5.45

// protein stability index lookup, sequence = HGISIPEPEDMETLEEKFSDVHPV [CDKL4] , result: 4.98

Measured protein stability index, EEELQEIASEPTNKHLFYAEDFST [MATN2] : 5.21

# protein stability index (sequence: QLNGTANDTAGPELPDPLGGLLDE [NFE2L1] ) is 5.37

Entry FHVNLGKESRAQTLQNGRRHIHHL [BRF1] — recorded protein stability index = 2.93

Kindly note the recorded protein stability index for KEDIDLIDILWRQDIDLGAGREVF [NFE2L1] , which is 3.47

Briefly, protein stability index measured for QFLNDQISVQNYKQVCKIAALHGL [KLHL14] : 2.17

The sequence listed as KNKPKMNYEKLSRGLRYYYDKNII [ETS1] shows protein stability index equal to 2.17

Entry VKRLLRSDAEAVSTRWEVIAEDGT [TAF7L] ; protein stability index = 3.73

Measured protein stability index, MMVNLRACSAPGGLVPSEKPPMMP [C2CD2L] : 2.29

Reported protein stability index of KGEEVTPISAIRHEGKTDSERTDT [EPB41L3] : 5.43

The sequence identified as SGRKNSTSKDLVTLGASSLREERG [C6orf223] registered its protein stability index at 4.87

Lab book: protein stability index of CSHSFLLAVMGYDRYIAICNPLRY [OR10K2] noted as 2.88

In plain terms, GTPSLLRGKRGGHATNYRIVAPRS [EMID1] has a documented protein stability index of 3.88

// protein stability index value for PSDFCGLTHLVKLDLSKNKLQQLP [LRRC59] : 2.16

// protein stability index lookup, sequence = VLLTQIESKKHQVETAFERLQQEL [TRIM15] , result: 2.77

The sequence listed as KALQEENRDLRKASVTIQARAEQE [CCDC6] shows protein stability index equal to 5.32

Entry SNQEVLQSCLLVIFATKPHVLPAV [PYCR3] — recorded protein stability index = 3.01

protein stability index for TLHNLSHHREGLLAIFKSGGIPAL [CTNNB1] is 2.38

Record summary for GSFHGPGHISLRRENSSDSPKELK [DLC1] : reported protein stability index = 5.09

Reported protein stability index of LERQNQEYQVLLDVKARLEGEIAT [KRT36] : 4.02

// recorded protein stability index for PVKASRSHQELHRELLMNHRRGLG [FAM107A] : 3.95

Record TSVQEADETTRSDISERPSVDDIE [C2CD2L] , field protein stability index: 5.61

protein stability index in this record for TRAPQRAHEVLQELRDISSMAMEY [FBXO28] : 3.48

protein stability index measured on QINRLQKLIDRLEKKDLKLEPPEE [NECAB1] = 3.7

protein stability index reported for this sequence VLTDSEGWILIDRCGKHFGTILNY [KCTD10] : 2.31

Entry DEPVCGRPLGIRAGPNGTLFVADA [APMAP] — recorded protein stability index = 4.03

Measured protein stability index, EKLNIPWNHIRLQRTAKGKPVLAK [AASDHPPT] : 3.05

Summary for this sequence, VSVTYCSVSQDFPGSNLNLLTNNS [ETS2] : protein stability index is 2.32

GET /value?item= SCYQVYCGRYINGHMLQHHGNSGH [HDAC6] &field=protein stability index returns 2.21

// AEKLKAQGEYSRKLEERFMTLAAN [CCDC89] : protein stability index value = 3.49

Reported protein stability index for HTPTPFKNALEKYGPLKPLPQTPH [MYBL2] was 3.91

Value of protein stability index reported for the sequence ARMGFNASSMLRKSQLGFLNVTNY [DCAF4] is 2.24

Short answer for EAFYYIHNLVVACEIQVRTLASAG [ADD1] : protein stability index was 2.98

Reported protein stability index for VIPFKVDTILKYLKDHFSHLLGIP [IQUB] was 2.65

Briefly, protein stability index measured for QRSTVFKTTIPEEEEEEEEAAGVV [LMNB1] : 5.56

Summary for this sequence, LRQFDLAWQYGPCTGITRLQRWCR [POLD4] : protein stability index is 2.32

So, ASLLHLAVEAGQEECAKWLLLNNA [RIPK4] ? Its protein stability index was 2.74

The reported protein stability index of the sequence MLKRPVLLHLHQTAHADEFDCPSE [STEAP1] was 3.73

Memo: SLEIEEKINKIRWLPQQNAAYFLL [PPP2R2B] , reported protein stability index: 2.01

protein stability index in this record for ISIPITGDTLRTFSLVLVLDLSKP [DYNC2LI1] : 2.87

The origin of these recorded values is the supplement of paper PMC10567573.
